Examples of compounds with documented inhibition follow.
- Species on record: Homo sapiens
- protocol.description: Inhibition of Calmodulin activation of cyclic nucleotide phosphodiesterase
- Format: functional
- cond: concentration not given here
Reply numerically in %, unit not repeated.

Record excerpt, results attached:
O=C(c1ccc(OCCN2CCCCC2)cc1)c1c(-c2ccc(O)cc2)sc2cc(O)ccc12; 6
Oc1ccc2c(c1)C(c1ccc(OCCN3CCCCC3)cc1)c1c-2ccc2cc(O)ccc12 (configuration not stated); 18
O=C(c1ccc(OCCN2CCCC2)cc1)c1c(-c2ccc(O)cc2)sc2cc(O)ccc12; 3

State its inhibition: CC/C(=C(\c1ccccc1)c1ccc(OCCN(C)C)cc1)c1ccccc1
44

State its inhibition: O=C(C1=C(c2ccc(O)cc2)CCc2cc(O)ccc21)c1ccc(OCCN2CCCCC2)cc1
2

State its inhibition: O=C(C1=C(c2ccccc2)CCc2cc(O)ccc21)c1ccc(OCCN2CCCCC2)cc1
6

State its inhibition: Oc1ccc2c3c(ccc2c1)-c1ccccc1C3c1ccc(OCCN2CCCCC2)cc1 (configuration not stated)
22

---

- assayed.target: Estrogen receptor (Homo sapiens, UniProt Q92731+P03372)
- cond: mcf7
- Description: Displacement of [3H]estradiol from Estrogen receptor in MCF-7 cells
Examples of molecules with documented log10 IC50 follow.
Form field - Quantity: IC50; Unit: nM; Scale: log10

Record excerpt, results attached:
O=C(c1ccc(OCCN2CCCC2)cc1)c1c(-c2ccc(O)cc2)sc2cc(O)ccc12; 2.08
Oc1ccc2c(c1)C(c1ccc(OCCN3CCCCC3)cc1)c1c-2ccc2cc(O)ccc12 (stereo not given); 2.10
O=C(C1=C(c2ccc(O)cc2)CCc2cc(O)ccc21)c1ccc(OCCN2CCCCC2)cc1; 1.86

State its log10 IC50: Oc1ccc2c3c(ccc2c1)-c1ccccc1C3c1ccc(OCCN2CCCCC2)cc1 (stereo not given)
2.87

State its log10 IC50: O=C(C1=C(c2ccccc2)CCc2cc(O)ccc21)c1ccc(OCCN2CCCCC2)cc1
3.22
